This section presents molecules with their documented AC50 values.
- Test system: DIO2 (gene 1734)
- experiment_summary: CCTE_GLTED_hDIO2: CCTE's human Deiodinase 2 (DIO2) Inhibition Assay, Great Lakes Toxicology and Ecology Division (GLTED) Lab (AID 2284050)
- Method: CCTE_GLTED_hDIO2 is a cell-free, single-readout assay designed to test the inhibitory activity of chemicals toward human iodothyronine Deiodinase type 2 (DIO2) enzyme. […] Free iodide is measured in a second step using the Sandell-Kolthoff method.CCTE_GLTED_hDIO2 is the assay component measured from the CCTE_GLTED_hDIO2 assay. […] This assay endpoint, CCTE_GLTED_hDIO2, was analyzed in the positive analysis fitting direction relative to DMSO as the negative control and baseline of activity. […]
The source made the active and inactive calls. The calls were made as follows: active = hit-call score of the fitted dose curve at least 0.9, where 1 is the maximum; inconclusive = response in the unintended direction; inactive = score below 0.9.

CCCCCCCC/C=C\CCCCCCCC(=O)N(C)CC(=O)O    55.6 µM (active)

Identify the measured AC50 of `CCCCCCCCn1sc(Cl)c(Cl)c1=O` for DIO2 (gene 1734).
26 µM (active)

Note, next up: `O=S(=O)(Cl)C(F)(F)C(F)(F)C(F)(F)C(F)(F)C(F)(F)C(F)(F)C(F)(F)C(F)(F)F`
66 µM (active)

Note, next up: `CCCCCCCCCCCCC[N+](C)(C)Cc1ccccc1`
22.2 µM (active)

Note, next up: `CCCCCCCCCCCCCC[P+](CCCC)(CCCC)CCCC`
17.1 µM (active)

Note, next up: `C=C(C)C(=O)OCC(F)(F)C(F)(F)C(F)(F)C(F)F`
34 µM (active)

Source listed as PubChem BioAssay (EPA / NIEHS).
